- Test target: ACC1 (Homo sapiens)
- Experimental details: In vitro ACC1 inhibition assay (ADP-Glo)
- Type: biochemical
- Study conditions: read-out: ACC1
Endpoint label: IC50

Here are 3 compounds together with their reported answers.
| Compound | Test target | IC50 |
| --- | --- | --- |
| COc1ccccc1[C@H](Cn1c(=O)n(C(C)(C)C(=O)O)c(=O)c2c(C)c(-c3ncco3)sc21)OCC1CCOCC1 | ACC1 (Homo sapiens) | < 0.1 µM |
| Cc1c(-c2ncco2)sc2c1c(=O)n(C(C)(C)C(N)=O)c(=O)n2C[C@H](OC(C)C)c1ccccc1 | ACC1 (Homo sapiens) | < 1 µM |
| CCOC(=O)c1sc2c(c1C)c(=O)n(CC(=O)O)c(=O)n2CC(O)c1ccccc1 (stereo not shown) | ACC1 (Homo sapiens) | < 5 µM |

Now for another entry.
Inquiry: Any idea what IC50 was measured for CCOC(=O)c1sc2c(c1C)c(=O)n(C(C)(C)C(N)=O)c(=O)n2C[C@H](OC(C)C)c1ccccc1 ?
Reply text: < 1 µM
